SYSTEM: serpin enzyme complex receptor (SEC-R) on human hepatoma cell lines (human)
PROTOCOL: 125I-C105Y saturation binding on HepG2 (low) cells, Scatchard analysis
pKd: −log10 of the molar value. Ends that are not written are not given here.
PROPERTY: pKd

BINDER | VALUE
CSIPPEVKFNKPFVYLI (also: radio-iodinated with 125I, site not given here) [Peptide C105Y] | 7.65

These entries and their values trace back to patent EP2025757A2.
